Reference source: patent US12441726B2

# study target: BRM (Homo sapiens)
# Sequence (P51531 whole entry): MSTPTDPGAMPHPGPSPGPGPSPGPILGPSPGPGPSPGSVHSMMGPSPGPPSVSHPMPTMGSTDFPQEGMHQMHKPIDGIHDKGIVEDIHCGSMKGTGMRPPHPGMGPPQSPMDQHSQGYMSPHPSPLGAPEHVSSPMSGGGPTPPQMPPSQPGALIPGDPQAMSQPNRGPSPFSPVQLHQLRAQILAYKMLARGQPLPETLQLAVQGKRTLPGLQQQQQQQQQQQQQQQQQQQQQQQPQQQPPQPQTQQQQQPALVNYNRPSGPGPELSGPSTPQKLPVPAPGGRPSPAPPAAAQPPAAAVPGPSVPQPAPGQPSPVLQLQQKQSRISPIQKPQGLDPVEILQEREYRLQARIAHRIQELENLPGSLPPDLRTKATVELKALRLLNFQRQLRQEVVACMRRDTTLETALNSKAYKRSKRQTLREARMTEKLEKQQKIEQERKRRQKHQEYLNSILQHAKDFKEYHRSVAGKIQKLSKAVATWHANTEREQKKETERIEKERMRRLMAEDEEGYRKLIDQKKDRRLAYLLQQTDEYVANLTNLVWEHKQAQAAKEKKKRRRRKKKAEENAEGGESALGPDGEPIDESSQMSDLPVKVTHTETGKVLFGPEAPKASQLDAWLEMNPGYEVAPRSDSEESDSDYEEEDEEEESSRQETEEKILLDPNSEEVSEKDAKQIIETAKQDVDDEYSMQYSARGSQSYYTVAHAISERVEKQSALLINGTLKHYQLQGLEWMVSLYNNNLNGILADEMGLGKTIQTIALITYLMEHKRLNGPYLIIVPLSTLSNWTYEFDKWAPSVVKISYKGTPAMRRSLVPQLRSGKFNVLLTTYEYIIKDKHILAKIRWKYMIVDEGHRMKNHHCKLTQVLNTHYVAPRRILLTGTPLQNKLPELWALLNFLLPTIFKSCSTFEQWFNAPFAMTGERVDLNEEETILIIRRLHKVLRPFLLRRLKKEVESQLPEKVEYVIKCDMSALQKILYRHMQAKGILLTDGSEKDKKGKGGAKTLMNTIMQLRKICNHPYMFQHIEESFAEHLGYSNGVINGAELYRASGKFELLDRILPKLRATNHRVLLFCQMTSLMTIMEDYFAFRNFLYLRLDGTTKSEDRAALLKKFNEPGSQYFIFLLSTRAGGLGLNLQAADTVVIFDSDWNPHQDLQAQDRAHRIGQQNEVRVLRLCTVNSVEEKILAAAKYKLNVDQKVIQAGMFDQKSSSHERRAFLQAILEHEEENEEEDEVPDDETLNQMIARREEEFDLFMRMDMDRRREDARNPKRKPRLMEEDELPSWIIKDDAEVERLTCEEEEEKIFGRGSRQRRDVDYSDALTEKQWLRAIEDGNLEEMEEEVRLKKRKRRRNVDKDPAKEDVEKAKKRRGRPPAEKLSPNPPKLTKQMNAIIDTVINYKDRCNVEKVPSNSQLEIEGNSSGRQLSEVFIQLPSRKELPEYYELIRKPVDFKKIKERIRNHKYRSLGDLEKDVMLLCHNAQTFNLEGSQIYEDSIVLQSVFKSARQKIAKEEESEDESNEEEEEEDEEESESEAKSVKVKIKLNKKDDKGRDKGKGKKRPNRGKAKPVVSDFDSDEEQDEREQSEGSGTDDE
# experiment: ATPase catalytic activity assay (ADP-Glo), BRM
# settings: 30 nM BRM, 400 μM ATP
Answer each item with its documented BRM Max % Inhibition.
Numbers only, in %.

[[record]]
compound = "Cn1ncc2c1CN(c1ccc3cnc(CNC(=O)c4ccc5c(c4)[C@](C)(C#N)COC5)cc3n1)C2 [Compound 461]"
result_type = "BRM Max % Inhibition"
observed_result = 93


For the 3 compounds below, give their BRM Max % Inhibition values.
1. COCCn1cc(-c2ccc3cnc(CNC(=O)c4ccc5c(c4)[C@](C)(C#N)COC5)cc3n2)c(OC)n1 [Compound 203]
2. CN1CCN(c2nccc(-c3ccc4cnc(CNC(=O)c5ccc6c(c5)[C@](C)(F)COC6)cc4n3)n2)CC1=O [Compound 267]
3. CN(C)c1cccc(-c2ccc3cnc(CNC(=O)c4cc(F)c5c(c4)[C@](F)(C(F)F)COC5)cc3n2)n1 [Compound 226]

[84, 103, 98]
